Target: UniProtKB Q9H3R0
Assay: JMJD2C in vitro enzyme inhibition assay (TR-FRET)
Assay type: biochemical
Conditions: TR-FRET, H3K9me3-biotin peptide; read-out: IC50 JNJD2C
pIC50: −log10 of the molar value.
MEASURED_QUANTITY: pIC50

> print(dat)
                                    compound        result
 1    O=C(O)c1ccnc2cc(-c3cc4ccccc4o3)[nH]c12  6.00 to 7.00
 2     Cc1cccc(OCc2cc3nccc(C(=O)O)c3[nH]2)c1        > 7.00
 3       O=C(O)c1ccnc2cc(COc3ccccc3F)[nH]c12  6.00 to 7.00
 4                O=C(O)c1ccnc2c(Cl)c[nH]c12  5.00 to 6.00
 5      COC(=O)c1ccnc2cc(C3(O)CCCCC3)[nH]c12        < 5.00
 6  O=C(O)c1ccnc2cc(Cc3ccc(Cl)c(F)c3)[nH]c12        > 7.00
 7     O=C(O)c1ccnc2cc(COc3ccc(F)cc3)[nH]c12  6.00 to 7.00
 8  O=C(O)c1ccnc2cc(Cc3ccc(Cl)c(OC(F)(F)F)c3)[nH]c12        > 7.00
 9     COc1cccc(Cc2cc3nccc(C(=O)O)c3[nH]2)c1  6.00 to 7.00
10  O=C(O)c1ccnc2cc(Cc3ccc(F)c(Cl)c3)[nH]c12        > 7.00
11  O=C(O)c1ccnc2cc(C(=O)N3CCC(c4ccccc4)C3)[nH]c12 (stereo not shown)  6.00 to 7.00
12             N#CCCc1cc2nccc(C(=O)O)c2[nH]1        > 7.00
13               COCc1cc2nccc(C(=O)O)c2[nH]1        > 7.00
14  CC(=O)Nc1ccc(OCc2cc3nccc(C(=O)O)c3[nH]2)cc1  6.00 to 7.00
15     O=C(O)c1ccnc2cc(C(=O)N3CCCCC3)[nH]c12  6.00 to 7.00
16  O=C(O)c1ccnc2cc(Cc3ccc(Cl)c(OCC4CC4)c3)[nH]c12        > 7.00
17   O=C(O)c1ccnc2cc(COc3ccc(F)cc3Cl)[nH]c12  6.00 to 7.00
18    O=C(O)c1ccnc2cc(COc3cccc(Cl)c3)[nH]c12  6.00 to 7.00
19       O=C(O)c1ccnc2cc(C3(O)CCCCC3)[nH]c12  6.00 to 7.00
20  O=C(O)c1ccnc2cc(Cc3ccc(Cl)c(Cl)c3)[nH]c12        > 7.00
21     COc1ccc(Cc2cc3nccc(C(=O)O)c3[nH]2)cc1        > 7.00
22            COC(=O)c1ccnc2cc(C3CC3)[nH]c12        < 5.00
23  O=C(O)c1ccnc2cc(C(O)c3ccccc3)[nH]c12 (racemic)        > 7.00
24      O=C(O)c1ccnc2cc(Cc3ccc(F)cc3)[nH]c12        > 7.00
25  O=C(O)c1ccnc2cc(C(O)C3CC3)[nH]c12 (racemic)        > 7.00
26         O=C(O)c1ccnc2cc(-c3ccccc3)[nH]c12  6.00 to 7.00
27  COc1cccc(C(O)c2cc3nccc(C(=O)O)c3[nH]2)c1 (racemic)  6.00 to 7.00
28        O=C(O)c1ccnc2cc(C3(O)CCCC3)[nH]c12        > 7.00
29       Cc1ccccc1OCc1cc2nccc(C(=O)O)c2[nH]1  6.00 to 7.00
30  CCC(O)c1cc2nccc(C(=O)O)c2[nH]1 (racemic)        > 7.00
31                O=C(O)c1ccnc2cc(CO)[nH]c12  6.00 to 7.00
32  Cc1cc(C)cc(OCc2cc3nccc(C(=O)O)c3[nH]2)c1  6.00 to 7.00
33  O=C(O)c1ccnc2cc(Cc3ccc(Cl)c(C(F)(F)F)c3)[nH]c12        > 7.00
34         COC(=O)c1ccnc2cc(C(C)(C)O)[nH]c12        < 5.00
35      O=C(O)c1ccnc2cc(C(=O)N3CCCC3)[nH]c12        > 7.00
36  O=C(O)c1ccnc2cc(C(O)CC3CC3)[nH]c12 (racemic)        > 7.00
37    COc1ccc(OCc2cc3nccc(C(=O)O)c3[nH]2)cc1  6.00 to 7.00
38        O=C(O)c1ccnc2cc(CCc3ccccc3)[nH]c12        > 7.00
39  CCCC(Oc1ccccc1)c1cc2nccc(C(=O)O)c2[nH]1 (racemic)  6.00 to 7.00
40  O=C(O)c1ccnc2cc(COc3ccc4c(c3)CCO4)[nH]c12  6.00 to 7.00

----------
Target: JMJD2C (Homo sapiens (Human))
Sequence (Q9H3R0 2-372): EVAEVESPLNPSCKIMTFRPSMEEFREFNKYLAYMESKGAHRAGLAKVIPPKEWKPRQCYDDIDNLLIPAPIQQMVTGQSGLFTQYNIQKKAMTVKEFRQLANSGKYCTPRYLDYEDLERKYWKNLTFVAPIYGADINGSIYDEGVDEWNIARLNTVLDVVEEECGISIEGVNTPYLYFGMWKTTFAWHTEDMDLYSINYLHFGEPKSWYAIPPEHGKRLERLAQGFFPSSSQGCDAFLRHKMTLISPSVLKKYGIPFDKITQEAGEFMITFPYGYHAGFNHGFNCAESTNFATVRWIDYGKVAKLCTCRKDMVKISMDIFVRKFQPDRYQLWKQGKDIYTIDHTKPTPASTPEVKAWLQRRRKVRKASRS
Test: JMJD2C in vitro enzyme inhibition assay (TR-FRET)
Type: biochemical
MEASURED_QUANTITY: IC50

> print(dat)
                                   compound   result
1  COC(=O)c1ccnc2cc(C(O)c3ccccc3)[nH]c12 (racemic) [Example 19]  > 10 µM

----------
Target: JMJD2C (Homo sapiens (Human))
Assay: JMJD2C in vitro enzyme inhibition assay (TR-FRET)
Type: biochemical
Conditions: TR-FRET, H3K9me3-biotin peptide; read-out: IC50 JNJD2C
# IC50 annotations
MEASURED_QUANTITY: IC50

> print(dat)
                                   compound          result
1  COC(=O)c1ccnc2cc(C3CCCC3)[nH]c12 [Example 28]      > 10000 nM
2  Cc1ccc(OCc2cc3nccc(C(=O)O)c3[nH]2)cc1 [Example 62]  100 to 1000 nM
3  COC(=O)c1ccnc2cc(Cc3ccccc3)[nH]c12 [Example 6]      > 10000 nM
4  O=C(O)c1ccnc2cc(COc3cc(F)cc(F)c3)[nH]c12 [Example 81]        < 100 nM
5  Cc1cccc(Cc2cc3nccc(C(=O)O)c3[nH]2)c1 [Example 36]        < 100 nM

----------
# pIC50 annotations
Target: Jarid1B (Homo sapiens (Human))
Sequence (Q9UGL1 2-751): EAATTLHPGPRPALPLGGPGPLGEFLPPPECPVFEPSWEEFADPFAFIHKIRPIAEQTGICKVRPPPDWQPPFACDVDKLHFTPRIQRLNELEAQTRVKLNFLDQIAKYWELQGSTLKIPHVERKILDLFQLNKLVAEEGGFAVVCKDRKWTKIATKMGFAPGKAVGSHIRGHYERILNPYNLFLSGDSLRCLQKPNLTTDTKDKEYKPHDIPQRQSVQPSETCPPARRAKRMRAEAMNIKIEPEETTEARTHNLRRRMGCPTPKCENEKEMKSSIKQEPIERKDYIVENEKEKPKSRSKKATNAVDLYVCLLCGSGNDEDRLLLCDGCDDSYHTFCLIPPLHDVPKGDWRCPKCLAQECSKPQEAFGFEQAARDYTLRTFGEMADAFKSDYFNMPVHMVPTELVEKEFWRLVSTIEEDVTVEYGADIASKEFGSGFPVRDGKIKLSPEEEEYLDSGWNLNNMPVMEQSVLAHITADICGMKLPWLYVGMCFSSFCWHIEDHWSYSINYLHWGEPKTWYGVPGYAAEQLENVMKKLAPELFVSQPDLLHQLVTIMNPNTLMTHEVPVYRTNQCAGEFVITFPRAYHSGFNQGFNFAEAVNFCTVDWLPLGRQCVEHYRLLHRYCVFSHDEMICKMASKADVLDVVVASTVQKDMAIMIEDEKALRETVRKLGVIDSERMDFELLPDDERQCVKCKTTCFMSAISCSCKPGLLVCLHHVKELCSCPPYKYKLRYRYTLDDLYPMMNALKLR
Assay: Jarid1B in vitro enzyme inhibition assay (TR-FRET)
Assay type: biochemical
Details: TR-FRET, H3K4me3-biotin peptide; read-out: IC50 Jarid1B
pIC50: −log10 of the molar value. Structures can show the parent of a compound that is named as a salt.
MEASURED_QUANTITY: pIC50

> print(dat)
                                    compound        result
 1             O=C(O)c1ccnc2cc(C3CC3)[nH]c12  5.00 to 6.00
 2  O=C(O)c1ccnc2cc(COc3cc(Cl)cc(Cl)c3)[nH]c12        > 7.00
 3   CC(O)c1cc2nccc(C(=O)O)c2[nH]1 (racemic)  6.00 to 7.00
 4            COC(=O)c1ccnc2cc(C3CC3)[nH]c12        < 5.00
 5     O=C(O)c1ccnc2cc(C(=O)N3CCCCC3)[nH]c12  6.00 to 7.00
 6     COc1ccc(Cc2cc3nccc(C(=O)O)c3[nH]2)cc1  6.00 to 7.00
 7  O=C(O)c1ccnc2cc(Cc3ccc(Cl)c(F)c3)[nH]c12        > 7.00
 8  CC(O)(c1ccc(F)cc1)c1cc2nccc(C(=O)O)c2[nH]1 (stereo not shown)        > 7.00
 9       O=C(O)c1ccnc2cc(COc3ccccc3F)[nH]c12  6.00 to 7.00
10  O=C(O)c1ccnc2cc(Cc3ccccc3)[nH]c12 [Example 7, sodium salt]  6.00 to 7.00

----------
Target: Jarid1B (Homo sapiens (Human))
Assay: Jarid1B in vitro enzyme inhibition assay (TR-FRET)
Assay type: biochemical
Conditions: TR-FRET, H3K4me3-biotin peptide; read-out: IC50 Jarid1B
MEASURED_QUANTITY: IC50

> print(dat)
                                   compound  measured.quantity          result
1  CC(O)(c1ccccc1)c1cc2nccc(C(=O)O)c2[nH]1 (racemic)               IC50  100 to 1000 nM
2     O=C(O)c1ccnc2cc(COc3cccc(F)c3)[nH]c12               IC50        < 100 nM
3       Cc1ccccc1OCc1cc2nccc(C(=O)O)c2[nH]1               IC50        < 100 nM
4  COC(=O)c1ccnc2cc(C(C)O)[nH]c12 (racemic)               IC50      > 10000 nM
5   O=C(O)c1ccnc2cc(Cc3ccc(Cl)cc3Cl)[nH]c12               IC50        < 100 nM
